Data origin, for the record: the supplement of paper PMC11246515

List of total protein half-life in vivo values.
- protocol_text: total protein half-life in vivo (active degradation + dilution); higher = more stable protein
- run_conditions: E. coli NCM3722 delta-clpP; growth: N-lim chemostat; doubling time 6 h
Write it as a number; the unit h goes unstated.

# count of solved cases: 3
{"sequence_input": "MEFFKKTALAALVMGFSGAALALPNITILATGGTIAGGGDSATKSNYTVGKVGVENLVNAVPQLKDIANVKGEQVVNIGSQDMNDNVWLTLAKKINTDCDKTDGFVITHGTDTMEETAYFLDLTVKCDKPVVMVGAMRPSTSMSADGPFNLYNAVVTAADKASANRGVLVVMNDTVLDGRDVTKTNTTDVATFKSVNYGPLGYIHNGKIDYQRTPARKHTSDTPFDVSKLNELPKVGIVYNYANASDLPAKALVDAGYDGIVSAGVGNGNLYKSVFDTLATAAKTGTAVVRSSRVPTGATTQDAEVDDAKYGFVASGTLNPQKARVLLQLALTQTKDPQQIQQIFNQY", "units_text": "h", "obs_value": 5.6}
{"sequence_input": "MQSVDVAIVGGGMVGLAVACGLQGSGLRVAVLEQRVQEPLAANAPPQLRVSAINAASEKLLTRLGVWQDILSRRASCYHGMEVWDKDSFGHISFDDQSMGYSHLGHIVENSVIHYALWNKAHQSSDITLLAPAELQQVAWGENETFLTLKDGSMLTARLVIGADGANSWLRNKADIPLTFWDYQHHALVATIRTEEPHDAVARQVFHGEGILAFLPLSDPHLCSIVWSLSPEEAQRMQQASEDEFNRALNIAFDNRLGLCKVESARQVFPLTGRYARQFASHRLALVGDAAHTIHPLAGQGVNLGFMDAAELIAELKRLHRQGKDIGQYIYLRRYERSRKHSAALMLAGMQGFRDLFSGTNPAKKLLRDIGLKLADTLPGVKPQLIRQAMGLNDLPEWLR", "units_text": "h", "obs_value": 5.28}
{"sequence_input": "MSHLAELVASAKAAISQASDVAALDNVRVEYLGKKGHLTLQMTTLRELPPEERPAAGAVINEAKEQVQQALNARKAELESAALNARLAAETIDVSLPGRRIENGGLHPVTRTIDRIESFFGELGFTVATGPEIEDDYHNFDALNIPGHHPARADHDTFWFDTTRLLRTQTSGVQIRTMKAQQPPIRIIAPGRVYRNDYDQTHTPMFHQMEGLIVDTNISFTNLKGTLHDFLRNFFEEDLQIRFRPSYFPFTEPSAEVDVMGKNGKWLEVLGCGMVHPNVLRNVGIDPEVYSGFAFGMGMERLTMLRYGVTDLRSFFENDLRFLKQFK", "units_text": "h", "obs_value": 6.11}

Notebook: MRILLSNDDGVHAPGIQTLAKALREFADVQVVAPDRNRSGASNSLTLESSLRTFTFENGDIAVQMGTPTDCVYLGVNALMRPRPDIVVSGINAGPNLGDDVIYSGTVAAAMEGRHLGFPALAVSLDGHKHYDTAAAVTCSILRALCKEPLRTGRILNINVPDLPLDQIKGIRVTRCGTRHPADQVIPQQDPRGNTLYWIGPPGGKCDAGPGTDFAAVDEGYVSITPLHVDLTAHSAQDVVSDWLNSVGVGTQW [P0A840] , total protein half-life in vivo read as 4.03

total protein half-life in vivo measured on MKKNRAFLKWAGGKYPLLDDIKRHLPKGECLVEPFVGAGSVFLNTDFSRYILADINSDLISLYNIVKMRTDEYVQAARELFVPETNCAEVYYQFREEFNKSQDPFRRAVLFLYLNRYGYNGLCRYNLRGEFNVPFGRYKKPYFPEAELYHFAEKAQNAFFYCESYADSMARADDASVVYCDPPYAPLSATANFTAYHTNSFTLEQQAHLAEIAEGLVERHIPVLISNHDTMLTREWYQRAKLHVVKVRRSISSNGGTRKKVDELLALYKPGVVSPAKK [P0AEE8] = 4.15

# total protein half-life in vivo of MALPILLDCDPGHDDAIAIVLALASPELDVKAITSSAGNQTPEKTLRNVLRMLTLLNRTDIPVAGGAVKPLMRELIIADNVHGESGLDGPALPEPTFAPQNCTAVELMAKTLRESAEPVTIVSTGPQTNVALLLNSHPELHSKIARIVIMGGAMGLGNWTPAAEFNIYVDPEAAEIVFQSGIPVVMAGLDVTHKAQIHVEDTERFRAIGNPVSTIVAELLDFFLEYHKDEKWGFVGAPLHDPCTIAWLLKPELFTSVERWVGVETQGKYTQGMTVVDYYYLTGNKPNATVMVDVDRQGFVDLLADRLKFYA = 4.24
